This collection of values is drawn from patent US20180194851A1.

# assaySystem: T1, Hu41BB N&E.3 (human, UniProt Q07011 18-255)
# T1 construct: Human-to-dog mutant of the human 4-1BB extracellular domain, expressed on transduced 300-19 cells
# T1 chain: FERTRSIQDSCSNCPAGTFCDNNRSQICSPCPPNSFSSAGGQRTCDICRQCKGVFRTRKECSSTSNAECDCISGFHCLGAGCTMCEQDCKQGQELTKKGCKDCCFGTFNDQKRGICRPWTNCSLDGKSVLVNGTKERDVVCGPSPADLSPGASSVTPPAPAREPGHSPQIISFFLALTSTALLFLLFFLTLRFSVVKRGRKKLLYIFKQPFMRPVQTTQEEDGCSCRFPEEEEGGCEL
# assayExplanation: FACS, 100 nM antibody, transduced 300-19 cell pools
quantityName: binding result

- binder: "MOR-6032 (IgG1) (antibody, V domains shown, Human IgG1 format, lambda light chain; also called 6032_G1) VH: QVQLVQSGAEVKKPGSSVKVSCKASGGTFNSYAISWVRQAPGQGLEWMGGIIPGFGTANYAQKFQGRVTITADESTSTAYMELSSLRSEDTAVYYCARKNEEDGGFDHWGQGTLVTVSS VL: DIELTQPPSVSVAPGQTARISCSGDNLGDYYASWYQQKPGQAPVLVIYDDSNRPSGIPERFSGSNSGNTATLTISGTQAEDEADYYCQTWDGTLHFVFGGGTKLTVL"
  quantityName: "binding result"
  endpointValue: "binds"
- binder: "MOR-7483 (IgG1) (antibody, V domains shown, Human IgG1 format, lambda light chain; also called 7483_G1) VH: QVQLVQSGAEVKKPGESLKISCKGSGYSFSTYWISWVRQMPGKGLEWMGKIYPGDSYTNYSPSFQGQVTISADKSISTAYLQWSSLKASDTAMYYCARGYGIFDYWGQGTLVTVSS VL: DIELTQPPSVSVAPGQTARISCSGDNIGDQYAHWYQQKPGQAPVVVIYQDKNRPSGIPERFSGSNSGNTATLTISGTQAEDEADYYCSTYTFVGFTTVFGGGTKLTVL"
  quantityName: "binding result"
  endpointValue: "binds"
